# study-system: truncated human IRE1a WT protein, containing the catalytic part (aa 547-977) (Homo sapiens)
# Construct: containing the catalytic part (aa 547-977)
# Sequence (O75460 547-977): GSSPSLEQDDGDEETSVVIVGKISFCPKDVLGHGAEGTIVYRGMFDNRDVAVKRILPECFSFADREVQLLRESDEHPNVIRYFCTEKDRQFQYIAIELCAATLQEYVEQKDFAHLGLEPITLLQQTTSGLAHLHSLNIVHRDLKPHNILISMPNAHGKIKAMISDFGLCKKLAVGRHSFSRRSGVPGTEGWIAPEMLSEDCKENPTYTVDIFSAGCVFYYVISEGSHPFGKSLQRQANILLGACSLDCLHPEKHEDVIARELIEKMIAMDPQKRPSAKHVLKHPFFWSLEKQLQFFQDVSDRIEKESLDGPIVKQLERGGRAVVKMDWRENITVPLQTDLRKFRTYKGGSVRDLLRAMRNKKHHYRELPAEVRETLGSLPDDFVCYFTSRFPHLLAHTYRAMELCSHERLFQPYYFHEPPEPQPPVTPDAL
# measurement-protocol: IRE1a biochemical enzyme splice assay
# measurement-context: 20 nM protein, 500 nM fluorescently quenched IRE1a substrate, 40 min at room temperature; read-out: EnzymeSplice_hIRE1a_IC50 (IC50)
pIC50: −log10 of the molar value.
value-kind: pIC50

molecule: CCc1cc(-c2ccc3c(NS(=O)(=O)c4ccc(C(F)(F)F)cc4Cl)ncnn23)cc2cnc(N[C@H]3CCCNC3)nc12 [Compound I-34]
value-kind: pIC50
value: < 6.00

Request the reported pIC50 associated with CCc1cc(-c2ccc3c(NS(=O)(=O)c4ccc(OC(F)F)cc4)ncnn23)cc2cnc(N[C@H]3CCCNC3)nc12 [Compound I-5]
> 7.00

Request the reported pIC50 associated with CCc1cc(-c2n[nH]c3c(NS(=O)(=O)c4ccccc4Cl)cccc23)cc2cnc(N[C@H]3CCCNC3)nc12 [Compound I-19]
> 7.00

Request the reported pIC50 associated with CCc1cc(-c2ccc3c(NS(=O)(=O)c4ccccc4Cl)ncnn23)cc2cnc(NC[C@H]3CCCNC3)nc12 [Compound I-8]
> 7.00

Request the reported pIC50 associated with CCCS(=O)(=O)Nc1ncnn2c(-c3cc(CC)c4nc(N[C@H]5CCCNC5)ncc4c3)ccc12 [Compound I-33]
> 7.00
